molecular target: T1, AFP158/HLA-A*02:01 complex (human); experiment: SPR, fold vs AS170036 VL1VH1;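 further: crude scFv muteins immobilised on a sensor chip, peptide–MHC complex passed over at several concentrations, binding then buffer-driven dissociation, KD estimated from on- and off-rates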
T1 construct: flowed as analyte in SPR
value type: Affinity increase

AS170036 VL1VH1-56N98I108D (scFv, also called 53-AS170036 VL1VH1-56N98I108D) scFv: QSALTQPRSVSGSPGQSVTISCAGTSSDVGSENYVSWYQQHPGKAPKLMIYQVNKRASGVPDRFSGSKSGNTASLTISGLQAEDEADYYCASYRSSDINIVFGGGTKLTVLGGGGSGGGGSGGGGSEVQLVESGGGLVQPGGSLRLSCAASGFTFSSYAMSWVRQAPGKGLEWVSTINSGTNSPYYADSVKGRFTISRDNSKNTLYLQMNSLRAEDTAVYYCAKNFFDGSWFLDPPAMDYWGQGTLVTVSSHHHHHH: 44.4 fold
AS170036 VL1VH1-57M98F108D (scFv, also called 77-AS170036 VL1VH1-57M98F108D) scFv: QSALTQPRSVSGSPGQSVTISCAGTSSDVGSENYVSWYQQHPGKAPKLMIYQVNKRASGVPDRFSGSKSGNTASLTISGLQAEDEADYYCASYRSSDFNIVFGGGTKLTVLGGGGSGGGGSGGGGSEVQLVESGGGLVQPGGSLRLSCAASGFTFSSYAMSWVRQAPGKGLEWVSTINSGTGMPYYADSVKGRFTISRDNSKNTLYLQMNSLRAEDTAVYYCAKNFFDGSWFLDPPAMDYWGQGTLVTVSSHHHHHH: 36.2 fold
AS170036 VL1VH1-56Y98I108A (scFv, also called 43-AS170036 VL1VH1-56Y98I108A) scFv: QSALTQPRSVSGSPGQSVTISCAGTSSDVGSENYVSWYQQHPGKAPKLMIYQVNKRASGVPDRFSGSKSGNTASLTISGLQAEDEADYYCASYRSSDINIVFGGGTKLTVLGGGGSGGGGSGGGGSEVQLVESGGGLVQPGGSLRLSCAASGFTFSSYAMSWVRQAPGKGLEWVSTINSGTYSPYYADSVKGRFTISRDNSKNTLYLQMNSLRAEDTAVYYCAKNFFDGSWFLAPPAMDYWGQGTLVTVSSHHHHHH: 212 fold
AS170036 VL1VH1-57M98F108S (scFv, also called 78-AS170036 VL1VH1-57M98F108S) scFv: QSALTQPRSVSGSPGQSVTISCAGTSSDVGSENYVSWYQQHPGKAPKLMIYQVNKRASGVPDRFSGSKSGNTASLTISGLQAEDEADYYCASYRSSDFNIVFGGGTKLTVLGGGGSGGGGSGGGGSEVQLVESGGGLVQPGGSLRLSCAASGFTFSSYAMSWVRQAPGKGLEWVSTINSGTGMPYYADSVKGRFTISRDNSKNTLYLQMNSLRAEDTAVYYCAKNFFDGSWFLSPPAMDYWGQGTLVTVSSHHHHHH: 18 fold
AS170036 VL1VH1-57M98Q108S (scFv, also called 84-AS170036 VL1VH1-57M98Q108S) scFv: QSALTQPRSVSGSPGQSVTISCAGTSSDVGSENYVSWYQQHPGKAPKLMIYQVNKRASGVPDRFSGSKSGNTASLTISGLQAEDEADYYCASYRSSDQNIVFGGGTKLTVLGGGGSGGGGSGGGGSEVQLVESGGGLVQPGGSLRLSCAASGFTFSSYAMSWVRQAPGKGLEWVSTINSGTGMPYYADSVKGRFTISRDNSKNTLYLQMNSLRAEDTAVYYCAKNFFDGSWFLSPPAMDYWGQGTLVTVSSHHHHHH: 16.7 fold
